target: Purified recombinant ADAMTS-7 (rat prodomain/human catalytic domain, SEQ ID No. 01 or 02) (Homo sapiens); construct: rat ADAMTS-7 signal peptide + prodomain (rat 1-217, Q1EHB3) (N); 2xStrep tag (C); 6xHis tag (C); assay: Assay for ADAMTS-7 enzymatic activity (FRET substrate cleavage); conditions: FRET substrate SEQ ID No. 11, 120 min at 32° C.; read-out: ADAMTS7-IC50
Sequence (Q9UKP4 237-537): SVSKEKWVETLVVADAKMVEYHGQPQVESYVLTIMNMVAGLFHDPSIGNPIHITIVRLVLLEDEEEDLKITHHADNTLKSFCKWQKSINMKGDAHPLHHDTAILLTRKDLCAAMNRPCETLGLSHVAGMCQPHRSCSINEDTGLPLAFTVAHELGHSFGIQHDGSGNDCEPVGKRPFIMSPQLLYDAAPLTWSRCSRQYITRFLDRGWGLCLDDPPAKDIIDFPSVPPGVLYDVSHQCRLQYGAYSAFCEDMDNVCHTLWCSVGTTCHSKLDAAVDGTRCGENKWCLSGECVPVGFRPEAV
metric: IC50 (nM)
Reply numerically in nM, unit not repeated.

Example cases with answers are listed next.
[[record]]
molecule = "CC(C)C1(CNC(=O)c2cnn(-c3cccc(C#N)c3)n2)NC(=O)NC1=O (racemic) [Example 120]"
metric = "IC50"
unit_symbol = "nM"
observed_result = 170

[[record]]
molecule = "Cn1ccnc1C1(CNC(=O)c2cnn(-c3ccc(Cl)c(F)c3)n2)NC(=O)NC1=O (single isomer, unassigned; ent-2)"
metric = "IC50"
unit_symbol = "nM"
observed_result = 2

[[record]]
molecule = "CCC(C)C1(CNC(=O)c2cnn(-c3ccc(F)cc3)n2)NC(=O)NC1=O (stereo not drawn) [Example 102]"
metric = "IC50"
unit_symbol = "nM"
observed_result = 62

[[record]]
molecule = "O=C1NC(=O)C(CNC(=O)c2cnn(-c3ccc(F)cc3)n2)(c2cccnc2)N1 (racemic)"
metric = "IC50"
unit_symbol = "nM"
observed_result = 30

[[record]]
molecule = "O=C1NC(=O)C(CNC(=O)c2cnn(-c3ccc(F)cc3)n2)(c2ccncc2)N1 (racemic)"
metric = "IC50"
unit_symbol = "nM"
observed_result = 140


Next molecule, please.
Input line: # IC50 lookup, item O=C1NC(=O)C(CNC(=O)c2cnn(-c3ccccc3)n2)(C2CCCC2)N1 (racemic) [Example 50]
Output line: 191
